Cited source for all entries: patent US9732094B2

- system_tested: DNA-PK (Homo sapiens (Human), UniProt P78527)
- assay_name: DNA-PK assay (biochemical), flashplate 33P-ATP kinase assay
- condition_description: biochemical DNA-PK assay
measurement_label: IC50

{"columns": ["compound", "measurement_label", "endpoint_result"],
 "data": [
  ["OC(c1cc(-c2ncnc3cc(N4CCOCC4)ccc23)c(F)cc1Cl)c1nccn2cccc12 (stereo not shown)", "IC50", "< 3 nM"],
  ["COc1cncnc1C(O)c1cc(-c2ncnc3cc(N4CCOCC4)ccc23)ccc1Cl (stereo not shown) [Example 409]", "IC50", "3 to 7 nM"],
  ["Cc1nccnc1C(C(N)=O)c1cc(-c2ncnc3cc(N4CCOCC4)sc23)c(F)cc1Cl (stereo not shown)", "IC50", "3 to 7 nM"]
]}

Let us move to another entry and its IC50.
Fill in the blank: the reported IC50 of NC(=O)C(c1cc(-c2ncnc3cc(N4CCOCC4)ccc23)c(F)cc1F)c1nccn2cccc12 (stereo not shown) is ____.
< 3 nM

###

- system_tested: UniProt:P78527
- assay_name: DNA-PK phosphorylation at serine 2056 (cellular), bleomycin-treated HCT116 cells, ELISA
- Assay type: cell-based
- condition_description: cellular DNA-PK phosphorylation at serine 2056, HCT116; read-out: IC50 pDNA-PK
- Description: HCT116 cells were cultivated at 37° C. and 10% CO2 in MEM alpha medium with 10% of foetal calf serum and 2 mM glutamine. The cells were detached from the base of the culture vessels with the aid of trypsin/EDTA, centrifuged off in centrifuge tubes, taken up in fresh medium, and the cell density was determined. […] The development of the enzymatic reaction was carried out with the aid of a chemiluminescent reagent, the chemiluminescence was measured with the aid of a Mithras LB940. […]
Please respond with reported IC50 for every item in the list.

{"columns": ["compound", "system_tested", "endpoint_result"],
 "data": [
  ["OC(c1cc(-c2ncnc3cc(N4CCOCC4)ccc23)ccc1F)c1ncnc2ccsc12 (centres unmarked) [Example 405]", "UniProt:P78527", "< 500 nM"],
  ["NC(=O)C(c1ccc(F)c(-c2ncnc3cc(N4CCOCC4)ccc23)c1)c1c(F)cncc1F (centres unmarked) [Example 321]", "UniProt:P78527", "500 to 5000 nM"],
  ["O=c1ccc(C(O)c2ccc(F)c(-c3ncnc4cc(N5CCOCC5)ccc34)c2)n[nH]1 (centres unmarked) [Example 367]", "UniProt:P78527", "500 to 5000 nM"],
  ["COc1ccc(C(O)c2cc(-c3ncnc4cc(N5CCOCC5)ccc34)ccc2Cl)nn1 (centres unmarked) [Example 460]", "UniProt:P78527", "< 500 nM"],
  ["OC(c1cc(-c2ncnc3cc(N4CCOCC4)ccc23)ccc1Cl)c1ncnc2ccoc12 (centres unmarked) [Example 414]", "UniProt:P78527", "< 500 nM"],
  ["COc1nccnc1C(O)c1cc(-c2ncnc3cc(N4CCOCC4)ccc23)ccc1Cl (centres unmarked) [Example 422]", "UniProt:P78527", "500 to 5000 nM"],
  ["NC(=O)C(c1ccc(F)c(-c2ncnc3cc(N4CCOCC4)ccc23)c1)c1nncc2sccc12 (centres unmarked) [Example 285]", "UniProt:P78527", "10000 to 30000 nM"]
]}

Let us move to another entry and its IC50.
Fill in the blank: the reported IC50 of OC(c1cc(-c2ncnc3cc(N4CCOCC4)ccc23)c(F)cc1F)c1ncnc2ccoc12 (centres unmarked) [Example 445] is ____.
< 500 nM
